# Assay explanation: Pharmacokinetics in rats with ABT pretreatment (intestinal and hepatic availability)
# Condition parameters: rat, plasma, oral, 1 mg/kg, Plasma concentration, rats, p.o. 100 mg/kg ABT, p.o. 1 mg/kg YL-IPA08, 24 h
Observation type: concentration at 24 h
Respond with a number, then the unit of measure.

Lookup: Please report the recorded concentration at 24 h for CCN(Cc1ccccn1)C(=O)Cc1c(-c2ccc(Cl)c(Cl)c2)nc2cc(C)ccn12 .
Found: 1.39 ng/mL

----------
# Assay explanation: Pharmacokinetics in rats with ABT pretreatment (intestinal and hepatic availability)
# Condition parameters: rat, plasma, oral, Plasma concentration, rats, i.v. 50 mg/kg ABT, p.o. 1mg/kg YL-IPA08, 6 h
Observation type: concentration at 6 h

Lookup: Look at this compound and give its reported concentration at 6 h. CCN(Cc1ccccn1)C(=O)Cc1c(-c2ccc(Cl)c(Cl)c2)nc2cc(C)ccn12
Found: 6.4 ng/mL
